Test system: IFN-α2a
Test: IFN-α2a cytokine activation in human PBMC (MSD assay)
Assay type: cell-based
Settings: 24 h
recorded-endpoint: EC50
Kindly format the answer as number then unit.

In: Report EC50 for CCCCc1nc2c(N)nnc(OC(C)C)c2n1Cc1ccc(CN)cc1 please.
Out: 0.4 nM

----------
Molecular target: human TLR7 (Homo sapiens, UniProt Q9NYK1)
Construct: host or cells: HEK293 (HEK-Blue hTLR7)
Assay: HEK-Blue hTLR7 reporter cell assay (SEAP, NF-kB/AP-1) for stimulation of human TLR7
Type: cell-based
Conditions: HEK-Blue hTLR7 cells, 24 h incubation, SEAP readout; read-out: TLR7_EC50
pEC50: −log10 of the molar value.
Threshold rule: pEC50 greater than or equal to 6 is 1.0; below that, 0.0.

Solved cases (6 shown):
{"compound": "CCCCc1nc2c(N)nnc(OC(C)C)c2n1C", "assay-system": "human TLR7 (Homo sapiens, UniProt Q9NYK1)", "label-value": 0.0}
{"compound": "CCCCc1nc2c(N)nnc(OC(C)C)c2n1Cc1ccc(CNCCOCCOCCOCCOCCOCCOC)cc1", "assay-system": "human TLR7 (Homo sapiens, UniProt Q9NYK1)", "label-value": 1.0}
{"compound": "CCCCc1nc2c(N)nnc(OC3CC[S+]([O-])C3)c2n1Cc1ccc(OC)cc1 (single isomer, unassigned; isomer a) [Compound 65]", "assay-system": "human TLR7 (Homo sapiens, UniProt Q9NYK1)", "label-value": 0.0}
{"compound": "CCCCc1nc2c(N)nnc(OC(C)C)c2n1CCN1CCNCC1", "assay-system": "human TLR7 (Homo sapiens, UniProt Q9NYK1)", "label-value": 0.0}
{"compound": "CCCCc1nc2c(N)nnc(NCCCc3ccco3)c2n1Cc1ccc(OC)cc1", "assay-system": "human TLR7 (Homo sapiens, UniProt Q9NYK1)", "label-value": 1.0}
{"compound": "CCCCc1nc2c(N)nnc(OC(C)C)c2n1Cc1cccc(CNC2CS(=O)(=O)C2)c1", "assay-system": "human TLR7 (Homo sapiens, UniProt Q9NYK1)", "label-value": 0.0}

In: Record CCCCc1nc2c(N)nnc(OC(C)C)c2n1Cc1ccc(CNC(=O)OCc2ccc(NC(C)=O)cc2)cc1 ; criterion: pEC50 no lower than 6. Met?
Out: 1.0

In: Record CCCCc1nc2c(N)nnc(OC(C)C)c2n1Cc1ccc(CN)cc1 [Compound 22, 2,2,2-trifluoroacetate] ; criterion: pEC50 no lower than 6. Met?
Out: 1.0

----------
Target: human TLR7 (Homo sapiens)
Construct: host or cells: HEK293 (HEK-Blue hTLR7)
Sequence (Q9NYK1 27-1049): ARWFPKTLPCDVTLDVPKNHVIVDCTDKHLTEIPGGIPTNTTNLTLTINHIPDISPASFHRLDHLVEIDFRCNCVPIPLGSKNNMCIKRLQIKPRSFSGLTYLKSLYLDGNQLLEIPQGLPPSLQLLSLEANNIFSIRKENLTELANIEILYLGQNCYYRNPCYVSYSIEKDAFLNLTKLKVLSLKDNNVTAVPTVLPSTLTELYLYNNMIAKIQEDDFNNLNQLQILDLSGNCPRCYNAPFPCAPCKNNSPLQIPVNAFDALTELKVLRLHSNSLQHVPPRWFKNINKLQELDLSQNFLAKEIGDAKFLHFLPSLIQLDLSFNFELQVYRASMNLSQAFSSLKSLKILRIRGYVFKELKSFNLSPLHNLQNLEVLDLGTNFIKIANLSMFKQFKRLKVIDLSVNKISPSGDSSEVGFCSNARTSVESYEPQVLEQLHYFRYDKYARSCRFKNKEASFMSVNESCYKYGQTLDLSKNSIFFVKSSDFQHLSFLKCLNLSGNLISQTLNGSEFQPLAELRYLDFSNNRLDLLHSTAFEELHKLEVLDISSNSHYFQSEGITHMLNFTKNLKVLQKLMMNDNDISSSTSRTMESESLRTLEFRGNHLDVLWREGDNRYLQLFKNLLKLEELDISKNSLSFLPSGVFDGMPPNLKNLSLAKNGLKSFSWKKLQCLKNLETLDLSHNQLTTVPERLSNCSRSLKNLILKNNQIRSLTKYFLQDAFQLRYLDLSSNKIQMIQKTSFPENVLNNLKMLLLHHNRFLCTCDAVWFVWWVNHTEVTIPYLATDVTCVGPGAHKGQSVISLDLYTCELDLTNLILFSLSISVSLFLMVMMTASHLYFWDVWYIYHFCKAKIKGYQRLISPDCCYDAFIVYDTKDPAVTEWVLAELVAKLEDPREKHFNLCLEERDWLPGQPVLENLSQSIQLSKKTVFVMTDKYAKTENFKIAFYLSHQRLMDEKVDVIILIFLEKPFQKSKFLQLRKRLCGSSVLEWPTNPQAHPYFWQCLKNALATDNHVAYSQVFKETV
Experiment: HEK-Blue hTLR7 reporter cell assay (SEAP, NF-kB/AP-1) for stimulation of human TLR7
Format: cell-based
Settings: 24 h; at 20000 nM; HEK-Blue hTLR7 cells
recorded-endpoint: activation at 20 µM
Give the number first and the unit second.

{"molecule": "Cc1nc2c(N)nnc(OC(C)C)c2n1Cc1ccc(CN)cc1 [Compound 160]", "activation at 20 µM": "35%"}
{"molecule": "CCCCc1nc2c(N)nnc(NC(C)C)c2[nH]1 [Compound 98]", "activation at 20 µM": "8%"}

In: GET /values?readout=activation at 20 µM&system=human TLR7 (Homo sapiens)&item= CCNCc1nc2c(N)nnc(OC(C)C)c2n1Cc1ccc(CN)cc1 [Compound 164]
Out: 4.8%

In: // fetch human TLR7 (Homo sapiens) activation at 20 µM for CCCCc1nc2c(N)nnc(C3CCNC3)c2n1Cc1ccc(CN)cc1 (stereo not drawn) [Compound 145]
Out: 2.2%

In: Reported activation at 20 µM for human TLR7 (Homo sapiens), given CCCCc1nc2c(N)nnc(NCc3ccc(CN4CCN(C)CC4)cc3)c2n1C [Compound 91] ?
Out: 45%

In: // map CCCCc1nc2c(N)nncc2n1Cc1ccc(OC)cc1 [Compound 95] to recorded activation at 20 µM (system: human TLR7 (Homo sapiens))
Out: 15%
